- System: Solanum nigrum
- test-summary: Test of herbicidal activity, post-seedling stem and leaf spray in greenhouse, Solanum nigrum
- Type: in vivo
- assay-conditions: post-seedling stem and leaf spray, dose 150 g a.i/ha
Listed compounds paired with reported Solanum nigrum (%) control effect
State just the number; it will be interpreted in %.

1. Cc1nn(C)c(O)c1C(=O)c1ccc(S(C)(=O)=O)cc1Cl [Control compound B, reference compound]	65

Turning to the following compound.
Query: Fill in the blank: the reported Solanum nigrum (%) control effect of Cc1nn(Cc2c(S(C)(=O)=O)ccc(C(=O)c3c(C)nn(C)c3OC(=O)c3cn(C)nc3C(F)(F)F)c2Cl)c(=O)o1 is ____.
Response: 90

----------
Listed molecules paired with reported Corn (%) safety (crop damage)
- Test system: corn
- test-summary: Safety testing on corn, stem and leaf spray in greenhouse
- Assay type: in vivo
- assay-conditions: stem and leaf spray, dose 300 g a.i/ha; 0 = no damage to crops, 100% = complete killing or severe inhibition
State just the number; it will be interpreted in %.

Known results for molecules:
1) CCS(=O)(=O)c1ccc(C(=O)C2C(=O)CCCC2=O)c(Cl)c1Cn1nc(C)oc1=O	5
2) CCS(=O)(=O)c1ccc(C(=O)c2c(C)nn(C)c2OC(=O)c2cc(C)nn2C)c(Cl)c1Cn1nc(C)oc1=O	2

Query: Observed Corn (%) safety (crop damage) on corn for CS(=O)(=O)c1ccc(C(=O)C2C(=O)CCCC2=O)c(Cl)c1CN1CCOCC1 [Control compound C, reference compound] , please.
Response: 5

----------
Listed compounds paired with reported Barnyard grass (%) control effect
- Test system: barnyard grass
- test-summary: Test of herbicidal activity, post-seedling stem and leaf spray in greenhouse, barnyard grass
- Format: in vivo
- assay-conditions: post-seedling stem and leaf spray, dose 150 g a.i/ha
State just the number; it will be interpreted in %.

Known results for compounds:
1) Cc1nn(C)c(O)c1C(=O)c1ccc(S(C)(=O)=O)cc1Cl [Control compound B, reference compound]	45
2) Cc1nn(Cc2c(S(C)(=O)=O)ccc(C(=O)C3C(=O)CCCC3=O)c2Cl)c(=O)o1	90

Turning to the following compound.
Query: Fill in the blank: the reported Barnyard grass (%) control effect of Cc1nn(Cc2c(S(C)(=O)=O)ccc(C(=O)c3c(C4CC4)nn(C)c3OC(=O)c3c(C)nn(C)c3Cl)c2Cl)c(=O)o1 is ____.
Response: 95

----------
Listed compounds paired with reported Solanum nigrum (%) control effect
- Tested on: Solanum nigrum
- test-summary: Test of herbicidal activity, post-seedling stem and leaf spray in greenhouse, Solanum nigrum
- Format: in vivo
- assay-conditions: post-seedling stem and leaf spray, dose 150 g a.i/ha
State just the number; it will be interpreted in %.

1) Cc1nn(Cc2c(S(C)(=O)=O)ccc(C(=O)c3c(C)nn(C)c3OC(=O)c3c(C(F)(F)F)nn(C)c3Cl)c2Cl)c(=O)o1 [Compound 204]	90

Query: Fill in the blank: the reported Solanum nigrum (%) control effect of Cc1nn(Cc2c(S(C)(=O)=O)ccc(C(=O)c3c(C4CC4)nn(C)c3OC(=O)c3c(C)nn(C)c3Cl)c2Cl)c(=O)o1 [Compound 201] is ____.
Response: 95

Query: Fill in the blank: the reported Solanum nigrum (%) control effect of Cc1nn(Cc2c(S(C)(=O)=O)ccc(C(=O)c3c(C)nn(C)c3OC(=O)c3cnn(C)c3Cl)c2Cl)c(=O)o1 [Compound 218] is ____.
Response: 90

Cited source for all entries: patent US20250333388A1
